biological target: human CGT (Homo sapiens, UniProt Q16880); assay: CGT Enzyme Assay (Biological Example 2, RapidFire/MS/MS method with 0.01% Tween 80 added); type: biochemical; conditions: enzymatic assay, CHO/CGT lysate
Sequence (Q16880 21-541): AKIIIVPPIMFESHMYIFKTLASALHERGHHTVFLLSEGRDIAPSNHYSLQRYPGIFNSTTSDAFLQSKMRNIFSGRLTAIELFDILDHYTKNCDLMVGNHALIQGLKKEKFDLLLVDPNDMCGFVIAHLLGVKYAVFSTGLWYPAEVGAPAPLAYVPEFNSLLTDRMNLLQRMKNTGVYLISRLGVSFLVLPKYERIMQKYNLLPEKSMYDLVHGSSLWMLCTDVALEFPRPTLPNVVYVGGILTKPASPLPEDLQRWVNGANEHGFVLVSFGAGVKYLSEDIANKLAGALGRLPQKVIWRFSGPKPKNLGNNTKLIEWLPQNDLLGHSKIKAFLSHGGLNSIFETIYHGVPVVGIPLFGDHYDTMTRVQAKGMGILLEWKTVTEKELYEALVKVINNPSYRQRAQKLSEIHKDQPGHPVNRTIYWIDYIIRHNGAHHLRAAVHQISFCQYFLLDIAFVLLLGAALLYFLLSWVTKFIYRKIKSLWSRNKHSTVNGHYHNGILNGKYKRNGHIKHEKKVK
pIC50: −log10 of the molar value.
Value Type: pIC50

Problem: Assign pIC50 to the following record: C[C@@H]1[C@@H](c2cccc(OC(F)(F)F)c2)N(c2ccc(Cl)cc2)C(=O)N1c1ccc(Cl)cc1 [Example 4-2]
Result: 4.52 to 5.00

Problem: Assign pIC50 to the following record: Cc1ccc(N2C(=O)N(c3ccc(C#N)cc3)C3(COC3)[C@H]2c2cccc(OC(F)(F)F)c2)cc1 [Example 43-1]
Result: 5.00 to 6.00

Problem: Assign pIC50 to the following record: CC1(C)[C@@H](c2cccc(OC(F)F)c2)N(c2ccc(Cl)cc2)C(=O)N1c1ccc(Cl)cc1 [Example 9-1]
Result: 4.52 to 5.00

Problem: Assign pIC50 to the following record: CC[C@@]1(C)[C@H](c2cccc(OC(F)(F)F)c2)N(c2ccc(Cl)cc2)C(=O)N1c1ccc(Cl)cc1 [Example 19-3]
Result: > 6.00

Problem: Assign pIC50 to the following record: Cc1ccc(N2C(=O)N(c3ccc(C)cc3)C(C)(C)[C@H]2c2cccc(OC(F)(F)F)c2)cc1 [Example 21-1]
Result: 5.00 to 6.00

Problem: Assign pIC50 to the following record: CCC[C@@]1(C)[C@@H](c2cccc(OC(F)(F)F)c2)N(c2ccc(C#N)cc2)C(=O)N1c1ccc(C#N)cc1 [Example 52-6]
Result: 4.52 to 5.00

Problem: Assign pIC50 to the following record: CC1(C)[C@@H](c2cccc(C#N)c2)N(c2ccc(C(F)(F)F)cc2)C(=O)N1c1ccc(C(F)(F)F)cc1 [Example 24-1]
Result: > 6.00

Problem: Assign pIC50 to the following record: Cc1ccc(N2C(=O)N(c3ccc(C)cc3)C3(COC3)[C@@H]2c2cccc(C#N)c2)cc1 [Example 32-2]
Result: > 6.00

Continuing:
Problem: Assign pIC50 to the following record: Cc1ccc(N2C(=O)N(c3ccc(C)cc3)C3(COC3)[C@H]2c2cccc(C#N)c2)cc1 [Example 32-1]
Result: 4.52 to 5.00

Problem: Assign pIC50 to the following record: CC1(C)[C@H](c2cccc(OC(F)(F)F)c2)N(c2ccc(C(F)(F)F)cc2)C(=O)N1c1ccc(C(F)(F)F)cc1 [Example 20-2]
Result: 4.52 to 5.00

Problem: Assign pIC50 to the following record: C[C@@H]1[C@@H](c2ccccc2)N(c2ccc(Br)cc2)C(=O)N1c1ccc(Br)cc1 [Example 2-2]
Result: > 6.00

Problem: Assign pIC50 to the following record: N#Cc1ccc(N2C(=O)N(c3ccc(Cl)cc3)[C@@H](c3cccc(OC(F)(F)F)c3)C23COC3)cc1 [Example 46-2]
Result: 5.00 to 6.00

Problem: Assign pIC50 to the following record: CCC[C@]1(C)[C@@H](c2cccc(OC(F)(F)F)c2)N(c2ccc(Cl)cc2)C(=O)N1c1ccc(Cl)cc1 [Example 22-2]
Result: > 6.00

Problem: Assign pIC50 to the following record: CC1(C)[C@H](c2cccc(OC(F)F)c2)N(c2ccc(Cl)cc2)C(=O)N1c1ccc(Cl)cc1 [Example 9-2]
Result: > 6.00

Problem: Assign pIC50 to the following record: O=C1N(c2ccc(Br)cc2)C2CCCCC2N1c1ccc(Br)cc1 (stereo not drawn) [Example 1]
Result: 4.00 to 4.52
